Entry source: patent US7138411B2

Where a name gives a salt, the structure may show the parent alone.

# Compound, melting point
records = [
    ("Cc1ccc2c(c1)OC(C(F)(F)F)C(C(=O)O)=C2 (centres unmarked) [Example 3]", "202.1 to 203.1 °C"),
    ("O=C(O)C1=Cc2cc(Cl)c(Oc3ccc(C(=O)O)cc3)cc2OC1C(F)(F)F (centres unmarked) (as salt: potassium) [Example 206]", "> 300 °C"),
    ("C=Cc1cc2c(cc1Cl)C=C(C(=O)O)C(C(F)(F)F)O2 (centres unmarked) [Example 182]", "> 200 °C (dec.)"),
    ("O=C(O)C1=Cc2cc(SC(F)(F)F)ccc2SC1C(F)(F)F (centres unmarked) [Example 155]", "129.3 to 132.4 °C"),
    ("O=C(O)C1=Cc2ccc(Oc3ccccc3)cc2OC1C(F)(F)F (centres unmarked) [Example 176]", "180 to 181 °C"),
]

----------
The compounds listed here are annotated with their log10(IC50).
Biological target: UniProt:P35354
Assay: Assay for COX-2 activity (PGE2 ELISA)
Settings: read-out: COX-2 IC50; 10–20 minutes pre-incubation, reaction stopped after ten minutes, pH 8.0
Assay Readout: log10(IC50) (log10 of the value in µM)

# Compound, System Under Test, log10(IC50)
records = [
    ("CC(C)CNS(=O)(=O)c1ccc2c(c1)C=C(C(=O)O)C(C(F)(F)F)O2 (stereo not shown)", "UniProt:P35354", 1.72),
    ("O=C(O)C1=Cc2c(F)ccc(Br)c2OC1C(F)(F)F (stereo not shown)", "UniProt:P35354", 1.66),
    ("Cc1cc(Br)c2c(c1)C=C(C(=O)O)C(C(F)(F)F)O2 (stereo not shown)", "UniProt:P35354", 1.32),
    ("CCOC(=O)C1=Cc2cc(N)ccc2OC1C(F)(F)F (stereo not shown)", "UniProt:P35354", 0.23),
    ("O=C(O)C1=Cc2cc(Br)cc(Br)c2OC1C(F)(F)F (stereo not shown)", "UniProt:P35354", 0.91),
    ("CC(C)(C)c1cc2c(c(C(C)(C)C)c1)OC(C(F)(F)F)C(C(=O)O)=C2 (stereo not shown)", "UniProt:P35354", 1.38),
    ("O=C(O)C1=Cc2cc(Cl)c(Oc3ccc(C(F)(F)F)cc3)cc2OC1C(F)(F)F (stereo not shown)", "UniProt:P35354", 0.53),
    ("C#Cc1ccc2c(c1)C=C(C(=O)O)C(C(F)(F)F)N2 (stereo not shown)", "UniProt:P35354", 1.00),
]

----------
Assay: Analgesia (Table I)
Type: in vivo
Settings: read-out: ANALGESIA % Inhibition; @ 10 mpk (values marked *)
Please mark fulfilled if the recorded inhibition in vivo at 10 mg/kg is equal to or greater than 60%, and not fulfilled if it falls below.

# Compound, Class Label
rows = [
    ("CN1c2ccc(Cl)cc2C=C(C(=O)O)C1C(F)(F)F (stereo not drawn) [Example 165]", "not fulfilled"),
    ("O=C(O)C1=Cc2cc(Cl)cc(Cl)c2NC1C(F)(F)F (stereo not drawn) [Example 158]", "not fulfilled"),
    ("O=C(O)C1=Cc2cc(Cl)ccc2NC1C(F)(F)F (stereo not drawn) [Example 157]", "not fulfilled"),
    ("O=C(O)C1=Cc2cc(Cl)cc(Cl)c2OC1C(F)(F)F (stereo not drawn) [Example 32]", "fulfilled"),
    ("O=C(O)C1=Cc2cc(Cl)c(Cl)cc2OC1C(F)(F)F (stereo not drawn) [Example 31]", "not fulfilled"),
]

----------
Structures can show the parent of a compound that is named as a salt.
The compounds listed here are annotated with their melting point.
Assay Readout: melting point

# Compound, Observed Result
rows = [
    ("CS(=O)(=O)c1ccc(-c2cc(Cl)cc3c2OC(C(F)(F)F)C(C(=O)O)=C3)cc1 (stereo not shown) [Example 128]", "286.5 to 287.8 °C"),
    ("O=C(O)C1=Cc2cc(Cl)ccc2N(Cc2ccc(C(F)(F)F)cc2)C1C(F)(F)F (stereo not shown) [Example 166]", "229 to 231 °C"),
    ("O=C(O)C1=Cc2cc(I)cc(I)c2OC1C(F)(F)F (stereo not shown) [Example 134]", "243 to 244 °C"),
    ("O=C(O)C1=Cc2cc(Cl)c(Oc3ccc(C(=O)O)cc3Cl)cc2OC1C(F)(F)F (stereo not shown) (as salt: potassium) [Example 207]", "> 300 °C"),
]

----------
Biological target: COX-2 (UniProt P35354)
Assay: Fast assay for COX-2 activity (PGE2 ELISA)
Assay type: biochemical, human or murine
Conditions: fast assay: 10 min pre-incubation at 25° C., reaction stopped after two minutes, pH 7.5
pIC50: −log10 of the molar value.

# Molecule, Relation, pIC50
rows = [
    ("Cc1cccc(C)c1Oc1cc2c(cc1Cl)C=C(C(=O)O)C(C(F)(F)F)O2 (stereo not drawn)", "=", 6.30),
    ("COc1ccc(Oc2cc3c(cc2Cl)C=C(C(=O)O)C(C(F)(F)F)O3)cc1 (stereo not drawn)", ">", 7.00),
    ("CC(C)(CO)c1ccc2c(c1)OC(C(F)(F)F)C(C(=O)O)=C2 (stereo not drawn)", "=", 4.81),
    ("O=C(O)C1=Cc2cc(Cl)c(Oc3ccc(C(F)(F)F)cc3)cc2OC1C(F)(F)F (stereo not drawn)", ">", 7.00),
    ("O=C(O)C1=Cc2cc(Cl)ccc2O[C@@H]1C(F)(F)F", "=", 4.09),
    ("O=C(O)C1=Cc2cc(Cl)c(Sc3ccccc3)cc2OC1C(F)(F)F (stereo not drawn)", ">", 7.00),
    ("O=C(O)C1=Cc2cc(Oc3ccccc3)ccc2OC1C(F)(F)F (stereo not drawn)", "=", 6.70),
    ("O=C(O)C1=Cc2cc(Cl)c(Oc3ccc(Cl)cc3)cc2OC1C(F)(F)F (stereo not drawn)", ">", 7.00),
    ("CC(C)(C)c1ccc2c(c1)OC(C(F)(F)F)C(C(=O)O)=C2 (stereo not drawn)", "=", 5.15),
]

----------
Biological target: COX-1 (UniProt P23219)
Consider the cut-off 6 µM. If the recorded IC50 is strictly smaller, the label is fulfilled; if not, the label is not fulfilled.

# Molecule, System Under Test, Class Label
records = [
    ("O=C(O)C1=Cc2cc(Oc3ccc(C(F)(F)F)cc3)ccc2OC1C(F)(F)F (stereo not drawn)", "COX-1 (UniProt P23219)", "not fulfilled"),
    ("O=C(O)C1=Cc2ccc(Oc3ccccc3)cc2OC1C(F)(F)F (stereo not drawn)", "COX-1 (UniProt P23219)", "fulfilled"),
    ("O=C(O)C1=Cc2cc(Cl)cc(-c3cccs3)c2OC1C(F)(F)F (stereo not drawn)", "COX-1 (UniProt P23219)", "fulfilled"),
    ("O=C(O)C1=Cc2cc(Cl)c(Oc3ccc(Cl)cc3)cc2OC1C(F)(F)F (stereo not drawn)", "COX-1 (UniProt P23219)", "fulfilled"),
    ("C#Cc1ccc2c(c1)C=C(C(=O)O)C(C(F)(F)F)N2 (stereo not drawn)", "COX-1 (UniProt P23219)", "not fulfilled"),
    ("O=C(O)C1=Cc2cc(Cl)cc(-c3ccc(Cl)cc3)c2OC1C(F)(F)F (stereo not drawn)", "COX-1 (UniProt P23219)", "fulfilled"),
    ("O=C(O)C1=Cc2cc(C(=O)c3ccc(Cl)cc3)ccc2OC1C(F)(F)F (stereo not drawn)", "COX-1 (UniProt P23219)", "not fulfilled"),
    ("O=C(O)C1=Cc2cc(C(F)(F)C(F)(F)F)ccc2OC1C(F)(F)F (stereo not drawn)", "COX-1 (UniProt P23219)", "not fulfilled"),
    ("O=C(O)C1=Cc2cc(Br)cc(Cl)c2OC1C(F)(F)F (stereo not drawn)", "COX-1 (UniProt P23219)", "not fulfilled"),
    ("O=C(O)C1=Cc2cc(S(=O)(=O)NCc3ccccc3)cc(Cl)c2OC1C(F)(F)F (stereo not drawn)", "COX-1 (UniProt P23219)", "not fulfilled"),
    ("COc1ccc(Oc2ccc3c(c2)C=C(C(=O)O)C(C(F)(F)F)O3)cc1Cl (stereo not drawn)", "COX-1 (UniProt P23219)", "fulfilled"),
    ("O=C(O)C1=Cc2cc(S(=O)(=O)N3CCOCC3)ccc2OC1C(F)(F)F (stereo not drawn)", "COX-1 (UniProt P23219)", "not fulfilled"),
    ("O=C(O)C1=Cc2cc(Cl)c(Cl)c(Cl)c2OC1C(F)(F)F (stereo not drawn)", "COX-1 (UniProt P23219)", "fulfilled"),
    ("O=C(O)C1=Cc2cc(Cl)c(Oc3ccc(OC(F)(F)F)cc3)cc2OC1C(F)(F)F (stereo not drawn)", "COX-1 (UniProt P23219)", "not fulfilled"),
    ("O=C(O)C1=Cc2c(ccc3oc4ccccc4c23)OC1C(F)(F)F (stereo not drawn)", "COX-1 (UniProt P23219)", "fulfilled"),
    ("C#Cc1cc2c(cc1Cl)C=C(C(=O)O)C(C(F)(F)F)O2 (stereo not drawn)", "COX-1 (UniProt P23219)", "not fulfilled"),
    ("O=C(O)C1=Cc2cc(Cl)c(OCC(F)(F)F)cc2OC1C(F)(F)F (stereo not drawn)", "COX-1 (UniProt P23219)", "not fulfilled"),
    ("O=C(O)C1=Cc2cc(Cl)cc(C#Cc3ccccc3)c2OC1C(F)(F)F (stereo not drawn)", "COX-1 (UniProt P23219)", "not fulfilled"),
]
